B1: Far upstream element-binding protein 1, residues 98 to 169; numbered along this chain, Q96AE4 (parent)
chain: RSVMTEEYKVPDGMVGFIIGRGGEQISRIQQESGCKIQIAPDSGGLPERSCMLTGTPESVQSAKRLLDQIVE

Variants of: B1
Assay: abundance fitness (aPCA) (normalised: wild type 0, dead -1); higher = more abundant; growth selection in yeast, the domain comes from the species named
Conditions: Homo sapiens
I would appreciate it if you labelled entries Met when abundance fitness is -0.04 or higher, otherwise Not met.

Query block: // inclusive: abundance fitness at least -0.04? input: RSVMTEEYKVPDGMVGFIIIRGGEQISRIQQESGCKIQIAPDSGGLPERSCMLTGTPESVQSAKRLLDQIVE [G20I]
Result block: Not met

Query block: Cool, now RSVMTEEYKVPDGMVGFIIGRGGEQISRIQQESGCKIQIAPDSGGLPERSCMLTGTPESNQSAKRLLDQIVE [V60N]
Result block: Not met

Query block: Now consider RSVMTEEYKVPDGMVGFIIGRGGTQISRIQQESGCKIQIAPDSGGLPERSCMLTGTPESVQSAKRLLDQIVE [E24T] .
Result block: Met

Query block: Another variant: RSVMTEEYKVPDGMVGFIIGRGGEQISAIQQESGCKIQIAPDSGGLPERSCMLTGTPESVQSAKRLLDQIVE [R28A]
Result block: Not met

Query block: Also check RSVMTEEYKVPDGMVGFIIGRGGEQISRIQQESGCKISIAPDSGGLPERSCMLTGTPESVQSAKRLLDQIVE [Q38S]
Result block: Met

Query block: Next: RSVMTEEEKVPDGMVGFIIGRGGEQISRIQQESGCKIQIAPDSGGLPERSCMLTGTPESVQSAKRLLDQIVE [Y8E]
Result block: Not met

Query block: Same thing, different variant: RSVMTEEYKVPDGMVGFIIGRGGEQISRIQQESGFKIQIAPDSGGLPERSCMLTGTPESVQSAKRLLDQIVE [C35F]
Result block: Not met

Query block: Try this variant next: RSVMTEEYKVPDGMVGFIIGRGGEQISRIQQESGCKIQIAPDWGGLPERSCMLTGTPESVQSAKRLLDQIVE [S43W]
Result block: Not met

Query block: Another variant to look at: RSVMTEEYKVPDGMVGFIIGRGGEQISHIQQESGCKIQIAPDSGGLPERSCMLTGTPESVQSAKRLLDQIVE [R28H]
Result block: Met

Query block: Next: RSVMTEEYKVPDGMVGFIIGRGGEQISRIQQEWGCKIQIAPDSGGLPERSCMLTGTPESVQSAKRLLDQIVE [S33W]
Result block: Not met

Continuing:
Query block: Check this variant for abundance fitness at or above -0.04: RSVMTEEYKVPDGMVGFIIGRGGEQISRIQQESGCKIQIAPDSGGLPERSCMLTGTPESVQSATRLLDQIVE [K64T]
Result block: Not met

Query block: Let us now turn to RSVMTEEYKVPDGMVGFIIGRGGEQISRIQQESGCKIQIAPDSGGLPIRSCMLTGTPESVQSAKRLLDQIVE [E48I]
Result block: Not met
